Biological target: RET kinase (Homo sapiens, UniProt P07949)
Sequence (P07949 29-1114): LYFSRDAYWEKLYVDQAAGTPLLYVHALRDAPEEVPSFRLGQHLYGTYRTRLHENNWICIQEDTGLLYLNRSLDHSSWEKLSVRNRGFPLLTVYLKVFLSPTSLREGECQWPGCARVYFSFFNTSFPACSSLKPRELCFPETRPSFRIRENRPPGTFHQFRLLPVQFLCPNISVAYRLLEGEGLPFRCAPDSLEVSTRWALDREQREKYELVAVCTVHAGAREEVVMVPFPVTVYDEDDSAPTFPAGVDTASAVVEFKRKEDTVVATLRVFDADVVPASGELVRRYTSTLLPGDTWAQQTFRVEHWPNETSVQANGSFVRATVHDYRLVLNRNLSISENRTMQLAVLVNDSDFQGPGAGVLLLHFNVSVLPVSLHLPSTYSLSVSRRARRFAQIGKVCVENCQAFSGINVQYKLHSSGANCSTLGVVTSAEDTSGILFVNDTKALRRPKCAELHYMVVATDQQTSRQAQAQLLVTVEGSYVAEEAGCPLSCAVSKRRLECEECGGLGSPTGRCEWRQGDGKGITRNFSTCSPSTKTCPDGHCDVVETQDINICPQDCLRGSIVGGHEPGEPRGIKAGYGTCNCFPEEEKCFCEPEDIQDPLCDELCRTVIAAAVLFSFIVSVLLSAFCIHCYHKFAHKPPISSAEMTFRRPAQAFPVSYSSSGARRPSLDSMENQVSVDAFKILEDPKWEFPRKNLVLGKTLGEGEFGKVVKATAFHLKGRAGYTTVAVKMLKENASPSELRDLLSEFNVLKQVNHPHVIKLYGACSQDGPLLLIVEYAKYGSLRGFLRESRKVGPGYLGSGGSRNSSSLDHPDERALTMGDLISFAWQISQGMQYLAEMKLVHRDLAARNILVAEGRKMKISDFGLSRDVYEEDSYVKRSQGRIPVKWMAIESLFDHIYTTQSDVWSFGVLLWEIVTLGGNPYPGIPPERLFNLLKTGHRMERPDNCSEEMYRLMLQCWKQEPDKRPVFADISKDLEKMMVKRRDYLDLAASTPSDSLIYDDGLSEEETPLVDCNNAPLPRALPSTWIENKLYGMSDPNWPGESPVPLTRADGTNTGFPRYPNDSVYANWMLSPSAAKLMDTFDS
Assay: RET Kinase Activity Assay
Type: biochemical
Conditions: read-out: Ret, % INH, at 30 uM
Below, each entry is listed alongside its reported inhibition at 30 µM.

Below, 4 molecules whose answers are already recorded.
Test Smiles: COc1ccc(OC)c(CN2CCN(c3nc(N)nc4[nH]ncc34)Cc3ccccc32)c1
Result: < 50%
--
Test Smiles: COc1ccc(CN2CCN(c3nc(N)nc4[nH]cnc34)Cc3ccccc32)cc1OC
Result: < 50%
--
Test Smiles: Nc1nc(N2CCN(CCCc3ccccc3)c3ccccc3C2)c2nc[nH]c2n1
Result: 50 to 79%
--
Test Smiles: Nc1nc(N2CCN(Cc3ccc(Cl)cc3Cl)c3ccccc3C2)c2nc[nH]c2n1
Result: < 50%

Okay, now this molecule:
Report inhibition at 30 µM on RET kinase (Homo sapiens, UniProt P07949) for this entry: Nc1nc(N2CCN(Cc3cccc(C(F)(F)F)c3)c3ccccc3C2)c2cn[nH]c2n1
< 50%
